System: CU-ACC1
ASSAY_SUMMARY: area under concentration-response curve (viability) (AUC (a.u.)); higher = less active
PARTICULARS: 48 h
Response field class: enum, chosen by comparing area under concentration-response curve against low: < 400; middle: ≥ 400 and < 500; high: ≥ 500

COMPOUND | CATEGORY_LABEL
COc1cc(N2CCC(N3CCN(C)CC3)CC2)ccc1Nc1ncnc(Nc2ccccc2[S+](=O)([O-])C(C)C)n1 | low
CCCCOc1nc(N)c2c(n1)N(Cc1cccc(CN3CCCC3)c1)CC(=O)N2 | high
CCCCC(=O)O[C@@]1([C@@H](C)C[C@H]2[C@@H]3CCC/4=C/C(=O)/C=C\[C@]4(C)[C@@]3(F)[C@@H](O)C[C@]12C)C(=O)CO | middle
NC(=O)c1ccc2[nH]c(-c3ccc(Oc4ccc(Cl)cc4)cc3)nc2c1 | middle
O=[N+]([O-])c1cn2c(n1)OC[C@@H](OCc1ccc(OC(F)(F)F)cc1)C2 | high
CS[C@H]1SC[C@@H]2C(=O)N(C)[C@H](C(C)C)C(=O)OC[C@H](NC(=O)c3cnc4ccccc4n3)C(=O)N[C@H](C)C(=O)N(C)[C@H]1C(=O)N(C)[C@H](C(C)C)C(=O)OC[C@H](NC(=O)c1cnc3ccccc3n1)C(=O)N[C@H](C)C(=O)N2C | low

From here, focus on the item given below.
Request: Band of CCN(CC)CCNc1ccc(C)c2sc3ccccc3c(=O)c12 ?
Response: middle

---

Tested on: CU-ACC2
ASSAY_SUMMARY: area under concentration-response curve (viability) (AUC (a.u.)); higher = less active
PARTICULARS: 48 h
I would appreciate it if you labelled entries T when area under concentration-response curve is 500 or higher, otherwise F.

Previously resolved entries follow.
COMPOUND | CATEGORY_LABEL
CNC(=O)c1cccc(-c2ccc3c(N4CCOC[C@@H]4C)nc(N4CCOC[C@@H]4C)nc3n2)c1 | T
O=C1NCCc2[nH]c(-c3ccncc3)cc21 | F

Request: Is it the case that CC(N)C12CC3CC(CC(C3)C1)C2 (stereo not given) has area under concentration-response curve reaching or exceeding 500?
Response: T

Request: Is it the case that CC(NC1=NC=NC2=C1[NH]C=N2)\C3=C\C4=C(C(=CC=C4)Cl)C(=O)N3C5=CC=CC=C5 (stereo not given) has area under concentration-response curve reaching or exceeding 500?
Response: T

Request: Is it the case that C[C@]\12CCC(=O)\C=C1CC[C@H]3[C@@H]4CC[C@](O)(C(=O)CO)[C@@]4(C)C[C@H](O)[C@H]23 has area under concentration-response curve reaching or exceeding 500?
Response: T

---

Test system: NCI-H295R
ASSAY_SUMMARY: AC50 viability; higher = less potent
PARTICULARS: 48 h
ASSAY_ENDPOINT: AC50 viability (µM)
Report the value in µM with no unit label.

For orientation, consider the following solved cases.
MOLECULE | AC50 viability, µM
COCCOC(=O)N1CCN([S+](=O)([O-])c2cc(F)c(Oc3ccc(Cl)cc3)c(F)c2)C(C(=O)NO)C1 (stereo not drawn) | 20.9
Cc1cc(C[S+](=O)([O-])c2ccccc2)cc(OCc2ccc(CN3CCC[C@@H]3CO)cc2)c1 | 26.3
CNC(=O)Nc1ccc(-c2nc(N3CC4CCC(C3)O4)c3cnn(C4CCC5(CC4)OCCO5)c3n2)cc1 | 1.05
CNCCCC12CCC(c3ccccc31)c1ccccc12 | 16.6
O=C1S/C(=C\c2ccc(OCc3cccc(B(O)O)c3)cc2)C(=O)N1Cc1ccc(F)cc1 | 13.2
CC(C)NC[C@@H](C(=O)N1CCN(c2ncnc3c2[C@H](C)C[C@H]3O)CC1)c1ccc(Cl)cc1 | 3.72
FC(F)(F)c1ccc(Nc2nc(-c3c(C(F)(F)F)nc4ccccn34)cs2)cc1 | 5.25

Turning to the following molecule.
The recorded AC50 viability for NC(=O)c1cnc(N[C@@H]2CCCC[C@@H]2N)nc1Nc1cccc(-n2nccn2)c1 is 20.9
